Recorded values, source the supplement of paper PMC10724198.

Quick reference: protein stability index of the listed items.
Tested on: Saccharomyces cerevisiae
Assay: protein stability index of tFT-peptide fusion (C-terminal peptide) (PSI (0-1 scale)); higher = more stable (slower turnover);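 also: PSI is a weighted mean of sequencing reads over stability bins, variants kept only with over 10 reads, mCherry proximal and sfGFP distal, peptide attached via GGGS linker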
Settings: genetic background: wild type; temperature: 30 C
measurementType: protein stability index

   polymersequence  valueobserved
0     LLAREILVIVAV          0.204
1     YAFLWCVFYLSF          0.196
2     GWMLVVWCGVFG          0.195

---

Test system: Saccharomyces cerevisiae
Assay: protein stability index of tFT-peptide fusion (C-terminal peptide) (PSI (0-1 scale)); higher = more stable (slower turnover)
Conditions: genetic background: wild type; temperature: 30 C
So basically: protein stability index at 0.7 or higher? That is label 1. Lower than 0.7? That is label 0.

>>> df
    polymersequence  assignedclass
 0     SPRPPLLLPVTV        label 0
 1     VIACLCGGVMWV        label 0
 2     SPCSNFLECLSF        label 0
 3     YLRSMIPKELAV        label 0
 4     YFRKDYRKMAQH        label 0
 5     RGWWWFVVVLCR        label 0
 6     FFVVAPSPSPRL        label 1
 7     SLPPPSPSPSLS        label 0
 8     DFLDPLQDEWPC        label 1
 9     GRSRGEGVRRNH        label 0
10     PPPSPPSPHAPP        label 0
